target: Sclerostin (Homo sapiens, UniProt Q9BQB4); experiment: Inhibition of sclerostin in human embryonic cells assessed as restoration of Wnt signaling by luciferase reporter gene assay; assay type: cell-based
Sequence (Q9BQB4 whole entry): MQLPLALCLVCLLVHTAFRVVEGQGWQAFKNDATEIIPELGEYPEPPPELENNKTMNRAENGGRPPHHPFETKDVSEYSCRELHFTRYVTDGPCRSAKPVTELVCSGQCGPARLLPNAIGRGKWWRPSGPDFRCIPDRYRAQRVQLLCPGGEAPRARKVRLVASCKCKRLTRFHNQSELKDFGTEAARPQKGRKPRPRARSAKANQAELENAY
assay.endpoint: IC50 (nM)

[[record]]
structure = "COc1cc2c(cc1OC)-c1c(OC)c(OC)c(C=O)c3c1[C@H](C2)N(C)CC3"
assay_endpoint = "IC50"
units_text = "nM"
measured_result = 1500

